- target: caspase-3 (Homo sapiens)
- Construct: purchased Sigma-Aldrich (St. Louis, Mo.)
- Sequence (P42574 29-175 limits assumed): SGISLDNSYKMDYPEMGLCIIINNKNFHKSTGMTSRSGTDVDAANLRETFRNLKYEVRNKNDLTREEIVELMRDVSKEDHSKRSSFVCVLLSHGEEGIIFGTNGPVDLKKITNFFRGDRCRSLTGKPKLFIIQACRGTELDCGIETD
- Sequence (P42574 176-277 limits assumed): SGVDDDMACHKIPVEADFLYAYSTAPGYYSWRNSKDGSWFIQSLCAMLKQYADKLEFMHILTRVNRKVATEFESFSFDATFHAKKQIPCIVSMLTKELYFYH
- test: Enzyme inhibition assay, caspase 3 (fluorogenic Ac-DEVD-AMC)
- Type: biochemical
- condition.parameters: Table 2; read-out: IC50 (nM) Caspase 3
outcome.measure: IC50 (nM)
Express it in nM; write the number only.

Problem: Which IC50 reading was recorded for the molecule N#CC(C#N)=C1C(=O)Nc2ccc(S(=O)(=O)N3CCCC3COc3ccccc3)cc21 (stereo not shown) [Compound 26] ?
Result: 272

Problem: What does the record list as IC50 for CN1C(=O)C(=C(C#N)C#N)c2cc(S(=O)(=O)N3CCCC3COc3ccccc3)ccc21 (stereo not shown) [Compound 27a] ?
Result: 119

Problem: Which IC50 is listed for N#CC(C#N)=C1C(=O)Nc2ccc(S(=O)(=O)N3CC[C@H]3COc3ccccc3)cc21 [WC-II-54] ?
Result: 283

---

- target: caspase 7 (Homo sapiens)
- Construct: purchased Sigma-Aldrich (St. Louis, Mo.)
- Sequence (P55210 24-198 limits assumed): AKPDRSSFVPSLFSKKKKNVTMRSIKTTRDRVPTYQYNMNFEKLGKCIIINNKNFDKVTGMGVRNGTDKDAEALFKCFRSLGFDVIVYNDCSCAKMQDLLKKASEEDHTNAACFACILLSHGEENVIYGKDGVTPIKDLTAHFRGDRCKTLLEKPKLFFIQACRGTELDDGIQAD
- Sequence (P55210 207-303 limits assumed): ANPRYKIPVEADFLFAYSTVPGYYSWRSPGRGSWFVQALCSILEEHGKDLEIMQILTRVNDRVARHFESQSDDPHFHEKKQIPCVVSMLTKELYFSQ
- test: Enzyme inhibition assay, caspase 7 (fluorogenic Ac-DEVD-AMC)
- Format: biochemical
- condition.parameters: IC50 for caspase-7
For each entry below, report its IC50 value.
Express it in nM; write the number only.

Problem: Please provide the recorded IC50 for N#CC(C#N)=C1C(=O)N(Cc2ccc(O)cc2)c2ccc(S(=O)(=O)N3CCCC3COc3cccnc3)cc21 (stereo not shown) [Compound 30b] , tested on caspase 7 (Homo sapiens).
Result: 28.6

Problem: # get_value(readout= IC50, system= caspase 7 (Homo sapiens)) for N#CC(C#N)=C1C(=O)N(Cc2ccc(Br)cc2)c2ccc(S(=O)(=O)N3CCCC3COc3cccnc3)cc21 (stereo not shown) [Compound 30c]
Result: 26.3

Problem: What reported IC50 corresponds to N#CC(C#N)=C1C(=O)N(Cc2ccccc2)c2ccc(S(=O)(=O)N3CCCC3COc3ccccc3)cc21 (stereo not shown) [Compound 27b] on caspase 7 (Homo sapiens)?
Result: 51.7

Problem: Query IC50 on caspase 7 (Homo sapiens) for N#CC(C#N)=C1C(=O)N(Cc2ccccc2)c2ccc(S(=O)(=O)N3CCCC3COc3cccnc3)cc21 (stereo not shown) [Compound 30a]
Result: 32.8
